target: AxCT mask27 EGFR EH104 L057 version 1
QUANTITY MEASURED: Percent cleavage (%)
The response must be a number in % with no trailing unit.

Use the examples below as a reference point.
| PROTEIN | Percent cleavage [%] |
| --- | --- |
| MMP-7 (protein) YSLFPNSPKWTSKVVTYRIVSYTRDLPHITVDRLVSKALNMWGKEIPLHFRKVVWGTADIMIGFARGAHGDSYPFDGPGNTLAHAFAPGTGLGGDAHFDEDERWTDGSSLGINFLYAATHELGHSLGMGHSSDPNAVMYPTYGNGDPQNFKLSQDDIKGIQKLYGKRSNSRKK | 0 |
| MMP-1 (protein) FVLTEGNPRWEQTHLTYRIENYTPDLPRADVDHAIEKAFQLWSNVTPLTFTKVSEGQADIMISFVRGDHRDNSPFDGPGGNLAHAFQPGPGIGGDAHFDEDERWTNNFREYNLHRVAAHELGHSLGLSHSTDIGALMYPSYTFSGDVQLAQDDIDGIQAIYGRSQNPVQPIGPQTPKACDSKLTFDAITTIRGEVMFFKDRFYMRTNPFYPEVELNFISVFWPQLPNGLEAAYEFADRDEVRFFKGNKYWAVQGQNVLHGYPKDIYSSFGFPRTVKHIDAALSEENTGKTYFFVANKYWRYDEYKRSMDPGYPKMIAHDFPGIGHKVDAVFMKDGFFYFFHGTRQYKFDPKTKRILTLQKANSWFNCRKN | 7 |
| Matriptase (protein) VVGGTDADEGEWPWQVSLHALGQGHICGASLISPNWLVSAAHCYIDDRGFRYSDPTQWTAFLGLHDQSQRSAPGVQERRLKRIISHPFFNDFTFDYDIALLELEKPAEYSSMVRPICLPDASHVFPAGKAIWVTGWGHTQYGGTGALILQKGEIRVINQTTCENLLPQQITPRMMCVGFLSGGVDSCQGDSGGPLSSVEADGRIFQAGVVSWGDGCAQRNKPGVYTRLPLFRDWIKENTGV | 36 |
| Neutrophil Elastase (protein) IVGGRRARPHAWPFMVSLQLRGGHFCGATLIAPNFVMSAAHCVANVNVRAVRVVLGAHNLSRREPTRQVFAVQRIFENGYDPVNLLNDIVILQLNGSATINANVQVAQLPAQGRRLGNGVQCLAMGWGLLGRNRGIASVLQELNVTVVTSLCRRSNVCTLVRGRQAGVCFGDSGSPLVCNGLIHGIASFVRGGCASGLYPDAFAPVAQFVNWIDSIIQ | 28 |
| Cathepsin G (protein) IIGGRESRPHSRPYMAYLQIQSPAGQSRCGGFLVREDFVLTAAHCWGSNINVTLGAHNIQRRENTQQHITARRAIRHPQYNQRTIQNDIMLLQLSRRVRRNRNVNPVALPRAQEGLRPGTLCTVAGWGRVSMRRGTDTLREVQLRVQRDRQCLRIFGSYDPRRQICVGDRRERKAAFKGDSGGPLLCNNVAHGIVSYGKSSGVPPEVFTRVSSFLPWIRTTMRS | 0 |

Prompt: Recorded Percent cleavage for MMP-12 (protein) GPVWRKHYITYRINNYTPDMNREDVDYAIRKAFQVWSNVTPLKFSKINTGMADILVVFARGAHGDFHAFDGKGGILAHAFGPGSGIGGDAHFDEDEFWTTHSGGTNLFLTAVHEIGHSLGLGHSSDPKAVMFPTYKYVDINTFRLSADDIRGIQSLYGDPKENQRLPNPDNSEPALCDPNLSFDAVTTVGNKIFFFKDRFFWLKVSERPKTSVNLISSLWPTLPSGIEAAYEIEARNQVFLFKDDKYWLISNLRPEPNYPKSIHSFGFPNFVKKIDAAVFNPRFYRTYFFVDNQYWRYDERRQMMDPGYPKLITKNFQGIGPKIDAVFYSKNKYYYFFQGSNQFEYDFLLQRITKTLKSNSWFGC , please?
Response: 18
